# literature pull: Carbonic anhydrase 1 (Homo sapiens) Ki
// note: answer is a bare numeric in nM

Ki on Carbonic anhydrase 1 (Homo sapiens) for COc1ccc(C2C=C(Nc3ccc(S(N)(=O)=O)cc3)C(=O)N2c2ccc(S(N)(=O)=O)cc2)cc1O (centres undefined) is 34.9

Ki on Carbonic anhydrase 1 (Homo sapiens) for NS(=O)(=O)c1ccc(N2C(=O)CCSC2c2ccc(F)cc2)cc1 (racemic) is 13.6

Ki on Carbonic anhydrase 1 (Homo sapiens) for O=[N+]([O-])c1ccc(S(=O)(=O)NCC(F)CCl)cc1 (centres undefined) is 3020

Ki on Carbonic anhydrase 1 (Homo sapiens) for NS(=O)(=O)c1ccc(NC2=CC(c3ccc(Br)cc3)N(c3ccc(S(N)(=O)=O)cc3)C2=O)cc1 (centres undefined) is 293

Ki on Carbonic anhydrase 1 (Homo sapiens) for CC(F)CNCCCCN1C(=O)c2ccccc2C1=O (centres undefined) is 250

New cases:
Ki on Carbonic anhydrase 1 (Homo sapiens) for NS(=O)(=O)c1ccc(NC2=CC(c3ccccc3)N(c3ccc(S(N)(=O)=O)cc3)C2=O)cc1 (centres undefined) is 52.7

Ki on Carbonic anhydrase 1 (Homo sapiens) for NS(=O)(=O)c1ccc(NC2=CC(c3ccc4c(c3)OCO4)N(c3ccc(S(N)(=O)=O)cc3)C2=O)cc1 (centres undefined) is 95.5
